target: human TrkA ECD (residues 36-382) (human, UniProt P04629 36-382); assay: BLI (Octet); biotinylated target on streptavidin sensors, miniprotein as analyte
Sequence (P04629 other isoform, or with tags, fused parts or gaps limits assumed): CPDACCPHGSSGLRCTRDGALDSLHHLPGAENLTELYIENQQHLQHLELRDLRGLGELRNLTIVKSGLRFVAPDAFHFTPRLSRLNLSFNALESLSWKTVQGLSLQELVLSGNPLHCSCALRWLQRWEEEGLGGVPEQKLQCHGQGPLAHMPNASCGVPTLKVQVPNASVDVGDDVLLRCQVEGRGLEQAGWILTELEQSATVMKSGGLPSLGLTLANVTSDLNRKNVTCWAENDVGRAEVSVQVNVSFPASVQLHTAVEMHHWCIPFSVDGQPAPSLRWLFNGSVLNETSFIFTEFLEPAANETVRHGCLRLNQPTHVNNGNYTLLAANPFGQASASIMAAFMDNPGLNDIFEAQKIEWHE
Outcome measure: pKd
Give bare numbers, as −log10 of the molar value.

Briefly, pKd measured for TrkA_mb (designed binder) MSHHHHHHHHSENLYFQSGGGRDEIKERIFKAVVRAIVTGNPEQLKEAKKLLEKLKKLGRLDQDAKKFEKAIRQVEKRLRS : 8.85
